From: a melting point compilation (Tetko et al.; mined from patent text by program, amines drawn as free bases though some values may be those of a salt)

Reported melting point values follow for various compounds

Here is how some compounds turned out for melting point.
CCC(CC)Oc1cc(C)nc(Oc2c(C)cc(C)cc2C)c1[N+](=O)[O-]
106 to 109 °C
Cc1cccc(-c2cc(Cl)nc3ccc(C(=O)c4ccc(Cl)cc4)cc23)c1
199 °C
COC(=O)c1ccc2c(c1)Sc1ccccc1N=C2
104 to 110 °C
O=c1[nH]nc2n1-c1ccc(Cl)nc1C(c1ccccc1Cl)=NC2O (configuration not stated)
260 to 262 °C

Data point: C=CCN1CCC23CC(=O)CCC2(O)C1Cc1cccc(OC)c13 (configuration not stated) ; melting point = 166 to 167 °C

Lookup result for CC(C)CC(=O)NCc1ccc(NC(=O)/C=C/c2cnn(C)c2-c2ccc(F)cc2)cc1 ; measured melting point: 226 to 227 °C

The reported value for Sc1ccc(-c2ccc(-c3ccc(S)c(S)c3)cc2)cc1S in terms of melting point is 171 to 172 °C
